Target: RET (human)
Experiment: radiometric filter-binding kinase assay, Kinase HotSpot
Conditions: compound 0.5 µM; ATP 10 µM
REPORTED_ENDPOINT: residual activity (%)
Enter your answer as a number in %; do not include the unit.

I am curious: what residual activity value has been reported for `CCN(CC)CCNC(=O)c1c(C)[nH]c(/C=C2\C(=O)Nc3ccc(Cl)cc32)c1C` ?
2.47

And the next one, `O=C(Nc1cccc(Nc2nccc(Nc3cccc(C(F)(F)F)c3)n2)c1)C1CC1` ?
88.6

And the next one, `N#CC(C#N)=C(N)/C(C#N)=C/c1ccc(O)cc1` ?
110

And the next one, `COc1cc2ncnc(Nc3cccc(Cl)c3)c2cc1OC` ?
35.3

And the next one, `O=C1NC(=O)C(c2cn(CCCn3ccnc3)c3ccccc23)=C1Nc1ccccc1` ?
95.6

And the next one, `c1ccc(-c2n[nH]cc2-c2ccnc3ccccc23)nc1` ?
93.8

---

Target: NTRK3 (human)
Experiment: radiometric filter-binding kinase assay, Kinase HotSpot
Details: compound 0.5 µM; ATP 10 µM
Decision: residual activity >= 80% yields Met, all other cases yield Not met.

Has CO[C@H]1CC2CC[C@@H](C)[C@@](O)(O2)C(=O)C(=O)N2CCCC[C@H]2C(=O)OC([C@H](C)C[C@@H]2CC[C@@H](O)[C@H](OC)C2)CC(=O)[C@H](C)/C=C(\C)[C@@H](O)[C@@H](OC)C(=O)[C@H](C)C[C@H](C)/C=C/C=C/C=C/1C (stereo partly drawn) a recorded residual activity greater than or equal to 80%?
Met

And the next one, `CCCC(=O)Oc1ccc2[nH]c(C(=O)c3cc4ccccc4[nH]3)cc2c1` ?
Met

And the next one, `CC(=O)c1ccc(N2CCOCC2)cc1O` ?
Met

Next:
Has `Cc1ccc(NC2=CC(=O)c3sc(C)nc3C2=O)cc1` a recorded residual activity greater than or equal to 80%?
Met

And the next one, `c1ccc(-c2n[nH]c3c2oc2ccccc23)cc1` ?
Not met

And the next one, `N#CC(C#N)=C(N)/C(C#N)=C/c1ccc(O)cc1` ?
Met

And the next one, `Cc1ccc(Nc2nccc(N(C)c3ccc4c(C)n(C)nc4c3)n2)cc1S(N)(=O)=O` ?
Met

And the next one, `N#C/C(=C(/N)Sc1ccc(N)cc1)c1ccccc1C(F)(F)F` ?
Met

And the next one, `CC[n+]1c(/C=C/N(C)c2ccccc2)n(-c2ccccc2)c2ccc(-c3nc4ccccc4s3)cc21` ?
Met

And the next one, `O=C1NC(=O)c2c1c1c3ccccc3n3c1c1c2c2ccccc2n1C1CCC3O1` ?
Not met

And the next one, `CCN(CC)C(=O)c1ccc(Nc2nc(OCC3CCCCC3)c3nc[nH]c3n2)cc1` ?
Not met

And the next one, `CCC(=O)Nc1ccc2ncnc(Nc3cccc(Br)c3)c2c1` ?
Met

And the next one, `Oc1cccc(-c2nc(N3CCOCC3)c3oc4ncccc4c3n2)c1` ?
Met

And the next one, `O=C1Nc2ccc(Cl)cc2/C1=C/c1cc(Cl)c(O)c(Cl)c1` ?
Not met

And the next one, `Nc1cccc(-c2cc3c(Oc4cccc(O)c4)ncnc3[nH]2)c1` ?
Not met

And the next one, `Nc1ncnc2c1c(-c1ccc(Oc3ccccc3)cc1)cn2C1CCCC1` ?
Not met

And the next one, `Cc1ccc(S(=O)(=O)/C=C/C#N)cc1` ?
Met

And the next one, `O=c1cc(N2CCOCC2)oc2c1ccc1ccccc12` ?
Met

And the next one, `Nc1ccc2ncnc(NCCc3ccc(Oc4ccccc4)cc3)c2c1` ?
Met

And the next one, `CCOC(=O)c1c(C)[nH]c(/C=C2\C(=O)Nc3ccccc32)c1C` ?
Not met

---

Molecular target: JAK1 JH1 catalytic (human)
Assay: radiometric filter-binding kinase assay, Kinase HotSpot
Details: compound 0.5 µM; ATP 10 µM
Entries and their residual activity
Enter your answer as a number in %; do not include the unit.

I am curious: what residual activity value has been reported for `Nc1cccc(-c2cc3c(Oc4cccc(O)c4)ncnc3[nH]2)c1` ?
106

Next:
I am curious: what residual activity value has been reported for `CNc1cc2c(Nc3cccc(Br)c3)ncnc2cn1` ?
79.9

And the next one, `Cc1ccc(Nc2nccc(N(C)c3ccc4c(C)n(C)nc4c3)n2)cc1S(N)(=O)=O` ?
104

---

Entries and their residual activity
Molecular target: RPS6KB2 (human) (UniProt Q9UBS0)
Sequence (Q9UBS0 whole entry, looked up): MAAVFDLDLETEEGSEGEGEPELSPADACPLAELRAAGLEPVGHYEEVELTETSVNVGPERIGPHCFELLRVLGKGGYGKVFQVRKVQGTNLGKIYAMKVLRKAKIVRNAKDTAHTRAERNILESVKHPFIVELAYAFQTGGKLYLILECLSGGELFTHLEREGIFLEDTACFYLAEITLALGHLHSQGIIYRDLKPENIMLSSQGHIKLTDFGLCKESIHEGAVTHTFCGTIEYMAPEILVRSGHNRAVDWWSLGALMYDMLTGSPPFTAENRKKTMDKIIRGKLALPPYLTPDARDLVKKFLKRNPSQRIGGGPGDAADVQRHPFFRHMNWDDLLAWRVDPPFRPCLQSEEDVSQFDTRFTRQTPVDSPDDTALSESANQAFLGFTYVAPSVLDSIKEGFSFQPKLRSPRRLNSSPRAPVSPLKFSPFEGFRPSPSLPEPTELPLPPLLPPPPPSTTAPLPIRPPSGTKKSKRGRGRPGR
Experiment: radiometric filter-binding kinase assay, Kinase HotSpot
Settings: compound 0.5 µM; ATP 10 µM
Enter your answer as a number in %; do not include the unit.

I am curious: what residual activity value has been reported for `O=C1NC(=O)C(c2cn(CCCn3ccnc3)c3ccccc23)=C1Nc1ccccc1` ?
86.1

Next:
I am curious: what residual activity value has been reported for CO[C@H]1CC2CC[C@@H](C)[C@@](O)(O2)C(=O)C(=O)N2CCCC[C@H]2C(=O)OC([C@H](C)C[C@@H]2CC[C@@H](O)[C@H](OC)C2)CC(=O)[C@H](C)/C=C(\C)[C@@H](O)[C@@H](OC)C(=O)[C@H](C)C[C@H](C)/C=C/C=C/C=C/1C (stereo not given in full) ?
95.4

And the next one, `CCN(CC)CCNC(=O)c1c(C)[nH]c(/C=C2\C(=O)Nc3ccc(Cl)cc32)c1C` ?
91.6

And the next one, `Cc1ccc(NC2=CC(=O)c3sc(C)nc3C2=O)cc1` ?
95.2

And the next one, `Nc1ncnc2[nH]nc(Nc3ccc(F)cc3)c12` ?
96.8

---

Molecular target: UniProtKB Q9NQU5
Sequence (Q9NQU5 whole entry, looked up): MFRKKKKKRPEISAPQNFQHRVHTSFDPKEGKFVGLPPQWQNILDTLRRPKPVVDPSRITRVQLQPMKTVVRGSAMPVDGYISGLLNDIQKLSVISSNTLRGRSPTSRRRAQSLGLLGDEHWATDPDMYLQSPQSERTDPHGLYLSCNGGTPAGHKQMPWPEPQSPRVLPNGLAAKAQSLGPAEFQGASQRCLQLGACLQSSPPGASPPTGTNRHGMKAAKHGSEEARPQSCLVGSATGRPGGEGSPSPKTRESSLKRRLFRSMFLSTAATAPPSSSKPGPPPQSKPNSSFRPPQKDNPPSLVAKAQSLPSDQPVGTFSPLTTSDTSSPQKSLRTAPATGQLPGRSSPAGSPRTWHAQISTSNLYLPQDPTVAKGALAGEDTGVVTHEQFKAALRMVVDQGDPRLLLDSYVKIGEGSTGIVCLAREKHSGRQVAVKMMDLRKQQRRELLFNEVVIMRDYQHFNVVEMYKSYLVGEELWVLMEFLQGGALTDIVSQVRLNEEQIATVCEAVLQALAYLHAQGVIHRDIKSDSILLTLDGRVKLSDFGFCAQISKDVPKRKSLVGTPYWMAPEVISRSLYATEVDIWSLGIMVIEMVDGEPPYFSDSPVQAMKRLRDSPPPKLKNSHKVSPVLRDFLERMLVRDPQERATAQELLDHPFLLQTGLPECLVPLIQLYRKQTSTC
Test: radiometric filter-binding kinase assay, Kinase HotSpot
Settings: compound 0.5 µM; ATP 10 µM
Entries and their residual activity
Enter your answer as a number in %; do not include the unit.

Tell me reported residual activity for `Nc1ncnc2[nH]nc(Nc3ccc(F)cc3)c12` , tested with UniProtKB Q9NQU5.
109

And the next one, `CC#CC(=O)Nc1cc2c(Nc3ccc(F)c(Cl)c3)ncnc2cn1` ?
96.9

And the next one, `Nc1ccc2ncnc(NCCc3ccc(Oc4ccccc4)cc3)c2c1` ?
105

And the next one, `CNc1cc2c(Nc3cccc(Br)c3)ncnc2cn1` ?
96.6

And the next one, `N#CC(C#N)=C(N)/C(C#N)=C/c1ccc(O)cc1` ?
97

And the next one, `COc1ccc(COc2ccc(Cc3cnc(N)nc3N)cc2OC)cc1` ?
94.9

Next:
Tell me reported residual activity for `CNC(=O)c1cc(Oc2ccc(NC(=O)Nc3ccc(Cl)c(C(F)(F)F)c3)cc2)ccn1` , tested with UniProtKB Q9NQU5.
104

And the next one, `Cc1ccc(Nc2nccc(N(C)c3ccc4c(C)n(C)nc4c3)n2)cc1S(N)(=O)=O` ?
105

---

Target: MAPK8 (human) (UniProt P45983)
Sequence (P45983 whole entry, looked up): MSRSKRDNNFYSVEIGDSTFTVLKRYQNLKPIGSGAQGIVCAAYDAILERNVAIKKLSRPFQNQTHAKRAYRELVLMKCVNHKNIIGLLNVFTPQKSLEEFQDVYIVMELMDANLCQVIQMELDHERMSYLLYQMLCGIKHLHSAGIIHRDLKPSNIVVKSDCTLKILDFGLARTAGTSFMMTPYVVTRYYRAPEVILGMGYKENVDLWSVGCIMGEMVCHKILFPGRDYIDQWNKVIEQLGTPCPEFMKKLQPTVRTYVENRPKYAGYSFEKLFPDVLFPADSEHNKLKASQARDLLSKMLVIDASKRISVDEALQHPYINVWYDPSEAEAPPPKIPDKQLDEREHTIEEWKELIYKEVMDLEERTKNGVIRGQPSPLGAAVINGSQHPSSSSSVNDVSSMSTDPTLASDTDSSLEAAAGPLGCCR
Assay: radiometric filter-binding kinase assay, Kinase HotSpot
Conditions: compound 0.5 µM; ATP 10 µM
REPORTED_ENDPOINT: residual activity (%)
Enter your answer as a number in %; do not include the unit.

I am curious: what residual activity value has been reported for `c1ccc(-c2n[nH]c3c2oc2ccccc23)cc1` ?
79.6

---

Target: NEK9 (human)
Assay: radiometric filter-binding kinase assay, Kinase HotSpot
Details: compound 0.5 µM; ATP 10 µM
REPORTED_ENDPOINT: residual activity (%)
Enter your answer as a number in %; do not include the unit.

I am curious: what residual activity value has been reported for `Oc1cccc(-c2nc(N3CCOCC3)c3oc4ncccc4c3n2)c1` ?
99.3

Next:
I am curious: what residual activity value has been reported for `Nc1ncnc2c1c(-c1ccc(Oc3ccccc3)cc1)cn2C1CCCC1` ?
96.6

And the next one, `O=C(Nc1cccc(Nc2nccc(Nc3cccc(C(F)(F)F)c3)n2)c1)C1CC1` ?
102

And the next one, `CNc1cc2c(Nc3cccc(Br)c3)ncnc2cn1` ?
99.4

And the next one, `CCC(=O)Nc1ccc2ncnc(Nc3cccc(Br)c3)c2c1` ?
105

And the next one, `Nc1ncnc2[nH]nc(Nc3ccc(F)cc3)c12` ?
97.9

---

Target: MARK1 (human) (UniProt Q9P0L2)
Sequence (Q9P0L2 whole entry, looked up): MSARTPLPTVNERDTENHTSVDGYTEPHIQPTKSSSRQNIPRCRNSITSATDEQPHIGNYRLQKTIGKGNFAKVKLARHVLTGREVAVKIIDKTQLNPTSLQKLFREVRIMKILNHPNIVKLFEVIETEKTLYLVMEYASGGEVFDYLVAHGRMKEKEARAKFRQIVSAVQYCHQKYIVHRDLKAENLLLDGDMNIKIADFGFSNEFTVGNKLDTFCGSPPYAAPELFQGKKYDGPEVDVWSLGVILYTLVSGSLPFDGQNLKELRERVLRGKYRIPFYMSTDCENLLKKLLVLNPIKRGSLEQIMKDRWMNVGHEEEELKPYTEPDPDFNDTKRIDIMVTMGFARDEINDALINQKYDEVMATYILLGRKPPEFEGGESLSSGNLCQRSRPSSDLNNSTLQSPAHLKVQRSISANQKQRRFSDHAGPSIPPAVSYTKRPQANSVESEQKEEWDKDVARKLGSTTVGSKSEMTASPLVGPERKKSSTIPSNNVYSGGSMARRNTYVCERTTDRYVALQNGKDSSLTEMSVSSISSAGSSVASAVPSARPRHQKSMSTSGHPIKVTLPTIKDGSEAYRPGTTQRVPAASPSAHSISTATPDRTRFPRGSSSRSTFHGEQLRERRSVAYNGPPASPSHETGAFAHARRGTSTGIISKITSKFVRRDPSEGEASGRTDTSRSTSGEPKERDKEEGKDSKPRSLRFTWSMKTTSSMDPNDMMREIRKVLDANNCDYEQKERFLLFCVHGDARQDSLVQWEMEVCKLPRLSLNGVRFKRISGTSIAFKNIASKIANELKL
Experiment: radiometric filter-binding kinase assay, Kinase HotSpot
Conditions: compound 0.5 µM; ATP 10 µM
REPORTED_ENDPOINT: residual activity (%)
Enter your answer as a number in %; do not include the unit.

I am curious: what residual activity value has been reported for `O=C1NC(=O)C(c2cn(CCCn3ccnc3)c3ccccc23)=C1Nc1ccccc1` ?
93.6

And the next one, `CCN(CC)CCNC(=O)c1c(C)[nH]c(/C=C2\C(=O)Nc3ccc(Cl)cc32)c1C` ?
18.1

And the next one, `CCOC(=O)c1c(C)[nH]c(/C=C2\C(=O)Nc3ccccc32)c1C` ?
90.8

And the next one, `c1ccc(-c2n[nH]c3c2oc2ccccc23)cc1` ?
98.6

We next turn to a different molecule, shown below.
I am curious: what residual activity value has been reported for `COc1ccc2c(c[n+](C)c3c4cc5c(cc4ccc23)OCO5)c1OC` ?
91.4

All figures here come from the kinase profiling compilation of Christmann-Franck et al. (2016).
